System: SN12C
Assay: NCI tumour cell line growth inhibition, 48 h
Calls of active or inactive are those of the source. Cut-off read from the data, not from the text of the source: active = GI50 up to about 1.1 µM and inactive = higher.
Labels: 1 (yes) (active), 0 (no) (inactive)

>  <compound>
CC(=O)OCC12C(=O)C[C@@H](C)C3(CC(c4ccoc4)OC3=O)C1CCC(OC(C)=O)C21CO1 (stereo not given in full)

>  <system-tested>
SN12C

>  <category>
0 (no)

$$$$
>  <compound>
Cc1ccc(/C(=C\C(=O)C(=O)NC23CC4CC(CC(C4)C2)C3)Sc2ccccc2)cc1

>  <system-tested>
SN12C

>  <category>
0 (no)

$$$$
>  <compound>
N/N=c1/nc2n(c3ncccc13)C=CNN2

>  <system-tested>
SN12C

>  <category>
0 (no)

$$$$
>  <compound>
Cc1cc(Br)cc(C)c1NC(=O)C(=O)C(C(=O)c1ccncc1)C1OC(=O)c2ccccc21 (stereo not given)

>  <system-tested>
SN12C

>  <category>
0 (no)

$$$$
>  <compound>
O=C(/C(=C/c1ccccc1)c1ccccc1)N1c2ccccc2CC1c1c[nH]c2ccccc12 (stereo not given)

>  <system-tested>
SN12C

>  <category>
0 (no)

$$$$
>  <compound>
Cc1ccc(C(=O)N/N=C2/C(=O)c3c4ccccc4cc4cccc2c34)cc1

>  <system-tested>
SN12C

>  <category>
0 (no)

$$$$
>  <compound>
O=C1N(C2CCCCC2)C(=O)N1C1CCCCC1

>  <system-tested>
SN12C

>  <category>
1 (yes)

$$$$
>  <compound>
Cc1ccccc1-n1c2nc(=O)n(C)c(=O)c-2nc2ccccc21

>  <system-tested>
SN12C

>  <category>
0 (no)

$$$$
>  <compound>
Cc1c2c(n3c(nc4ccccc43)c1C#N)SCC2

>  <system-tested>
SN12C

>  <category>
0 (no)

$$$$
>  <compound>
FC(F)(F)c1nc2ccc3[nH]c4c(-c5ccccc5)nccc4c3c2[nH]1

>  <system-tested>
SN12C

>  <category>
0 (no)

$$$$

* * *

System: MDA-N
Experiment: NCI tumour cell line growth inhibition, 48 h
Active and inactive are the calls of the source. No stated cut-off is given here; in the data, active = GI50 up to about 1.1 µM and inactive = higher.
Labels: y for active, n for inactive

>  <molecule>
Cc1nc(C)c(C(=O)NNC(=O)C[N+](C)(C)C)cc1C(=O)NNC(=O)C[N+](C)(C)C

>  <category>
n

$$$$
>  <molecule>
Cc1sc2ccccc2[n+]1CCC(=O)O

>  <category>
n

$$$$
>  <molecule>
CCCCC1CCCCCCc2[nH]c(/C=C3\N=C(c4ccc[nH]4)C=C3OC)cc21 (centres undefined)

>  <category>
y

$$$$
>  <molecule>
O=c1c2c3c(sc2nc2n1N=C(c1ccc([N+](=O)[O-])cc1)CS2)CCCC3

>  <category>
n

$$$$
>  <molecule>
OC(CBr)C(O)C(O)C(O)CBr (centres undefined)

>  <category>
n

$$$$
>  <molecule>
O=C1c2cc(O)c(O)cc2O[C@H](c2ccc(O)c(O)c2)[C@H]1O

>  <category>
n

$$$$
>  <molecule>
O=C(C/C=C/c1ccccc1)c1ccccc1

>  <category>
n

$$$$
>  <molecule>
O=S(=O)(Nc1ccccc1)c1ccc(-c2c3nc(c(-c4ccc(S(=O)(=O)Nc5ccccc5)cc4)c4ccc([nH]4)c(-c4ccc(S(=O)(=O)Nc5ccccc5)cc4)c4nc(c(-c5ccc(S(=O)(=O)Nc6ccccc6)cc5)c5ccc2[nH]5)C=C4)C=C3)cc1

>  <category>
n

$$$$
>  <molecule>
CC12NC(=C(C#N)C#N)C(C#N)=C3NC(N)=C(C#N)C(=C31)Oc1ccccc12 (centres undefined)

>  <category>
n

$$$$
>  <molecule>
CCOP(=O)(OCC)C(Cc1cn(S(=O)(=O)c2ccc(C)cc2)cn1)C(=O)O (centres undefined)

>  <category>
n

$$$$
>  <molecule>
COc1ccc(OC)c2sc(N3C(=O)/C(=C/c4ccc(N(C)C)cc4)N=C3c3ccccc3)nc12

>  <category>
n

$$$$
>  <molecule>
COc1ccc2c(c1)CCCN1Cc3cc(OC)c(OC)cc3CC21 (centres undefined)

>  <category>
n

$$$$
>  <molecule>
CC(=O)OCC1OC(n2c(-c3ccccc3)c(/N=N/c3ccc(C)cc3)c(C)c(C#N)c2=S)C(OC(C)=O)C(OC(C)=O)C1OC(C)=O (centres undefined)

>  <category>
n

$$$$
>  <molecule>
Cc1cc(S(=O)(=O)Nc2nc3cccnc3[nH]2)c(S)cc1Cl

>  <category>
n

$$$$
>  <molecule>
C/C1=C\C=C(\C(C)C)CC/C(C(=O)O)=C\CC/C(C)=C/CC1

>  <category>
n

$$$$
>  <molecule>
O=C(O)CCC(NC(=O)c1ccc(Nc2nc3ccc(C(F)(F)F)cc3nc2C(=O)O)cc1)C(=O)O (centres undefined)

>  <category>
n

$$$$
>  <molecule>
COc1nc2c(c(=O)[nH]1)N=C(c1ccc(Cl)cc1)CC(c1ccccc1)N2 (centres undefined)

>  <category>
n

$$$$
>  <molecule>
Cc1cc(O)nc(NN2C(Cl)C(=O)C2c2ccc(Cl)cc2)n1 (centres undefined)

>  <category>
n

$$$$
>  <molecule>
O/N=C1\Nc2ccccc2OCc2cc(Br)c(Br)cc2COc2ccccc2N\C1=N/O

>  <category>
n

$$$$
